protocol_details: IAM-HPLC, chromatographic hydrophobicity index on an immobilized artificial membrane column
Type: physicochemical
assay_conditions: IAM.PC.DD2 column, gradient 0–85% acetonitrile in 10-mM phosphoric buffer pH 7.4, 30.0 °C; calculated from retention time with calibration curve
Ends that are not written are not given here.
In this section, each of the substances is paired with its reported CHIIAM.
Number only, please.

Ask: # get_value(readout='CHIIAM', item= DVIKKVASVIG-NH2 [(4–14) Citropin, analog of citropin 1.1] )
Reply: 27.85

Ask: Recorded CHIIAM for GLFDVVIGGL-NH2 [(1–5)–(12–16) Citropin, analog of citropin 1.1] , please?
Reply: 28.66

Ask: Need CHIIAM, item DVIKKVASVIGGL-NH2 [(4–16) Citropin, analog of citropin 1.1]
Reply: 38.24

Ask: What does the record list as CHIIAM for KVASVIGGL-NH2 [(8–16) Citropin, analog of citropin 1.1] ?
Reply: 45.95

Ask: Suppose we examine the substance GLFDVIK-NH2 [(1–7) Citropin, analog of citropin 1.1] ; what CHIIAM value has been reported?
Reply: 42.15

Ask: Given the entry GLFDVIKASVIGGL-NH2 [(1–7)–(10–16) Citropin, analog of citropin 1.1] , report its measured CHIIAM.
Reply: 37.09

Recorded values, source paper PMC8532876.
